target: Adrenergic receptor alpha; assay: In vitro presynaptic antagonist activity against Alpha adrenergic receptor in rat vas deferens; assay type: functional, tissue-based
Metric: pA2

The following compounds have reported results that may help.
>>> print(df.to_string())
                       molecule  metric  obs_value
0  CCCC/N=C(/N)Nc1nc2ccccc2nc1C     pA2        6.3
1     c1ccc2c(NC3=NCCN3)nncc2c1     pA2          6
2         N=C(N)Nc1nncc2ccccc12     pA2        5.7

Now take the following compound into account.
-- ask Fill in the blank: the reported pA2 of CCCC/N=C(\N)Nc1nncc2ccccc12 is ____.
-- reply 6.6

====

test system: Rattus norvegicus; assay: Percent change of mean arterial blood pressure in conscious DOCA Hypertensive rat at 22 hour, after administration of dose 10 mL (mg/kg po); format: functional
Consider the following molecules and their measured Change readings.
// units = %; emit number, no label

>>> df
                         molecule  metric  obs_value
0  NNc1nncc2ccccc12 [HYDRALAZINE]  Change        -15

-- ask Fill in the blank: the reported Change of Cc1ccc(N(CC2=NCCN2)c2cccc(O)c2)cc1 [PHENTOLAMINE] is ____.
-- reply 6

-- ask Again, but for CNc1nnc2c3ccccc3cnn12
-- reply 4

-- ask Again, but for CCCC/N=C(/N)Nc1nc2ccccc2nc1C
-- reply 20

-- ask Again, but for CCCC/N=C(\N)Nc1nncc2ccccc12
-- reply 8

-- ask Again, but for Nc1nnc2c3ccccc3cnn12
-- reply -3

-- ask Again, but for N=C(N)Nc1nncc2ccccc12
-- reply 4

====

Consider the following compounds and their measured Change readings.
tested on: Rattus norvegicus; assay: Percent change of heart rate in conscious DOCA Hypertensive rat at 22 hour after administration of dose of 10 mL (mg/kg po); type: functional
Please provide the amount together with its unit, number first.

                         compound  obs_value
0  NNc1nncc2ccccc12 [HYDRALAZINE]         8%
1           CNc1nnc2c3ccccc3cnn12       -10%
2     CCCC/N=C(\N)Nc1nncc2ccccc12        11%
3    CCCC/N=C(/N)Nc1nc2ccccc2nc1C         2%
4           N=C(N)Nc1nncc2ccccc12         3%
5            Nc1nnc2c3ccccc3cnn12         7%

Now take the following compound into account.
-- ask Record Cc1ccc(N(CC2=NCCN2)c2cccc(O)c2)cc1 : what is its Change with Rattus norvegicus?
-- reply 7%
